Origin of values: patent US10376481B2

STUDY_TARGET: UniProt P48764
Sequence (P48764 26-834): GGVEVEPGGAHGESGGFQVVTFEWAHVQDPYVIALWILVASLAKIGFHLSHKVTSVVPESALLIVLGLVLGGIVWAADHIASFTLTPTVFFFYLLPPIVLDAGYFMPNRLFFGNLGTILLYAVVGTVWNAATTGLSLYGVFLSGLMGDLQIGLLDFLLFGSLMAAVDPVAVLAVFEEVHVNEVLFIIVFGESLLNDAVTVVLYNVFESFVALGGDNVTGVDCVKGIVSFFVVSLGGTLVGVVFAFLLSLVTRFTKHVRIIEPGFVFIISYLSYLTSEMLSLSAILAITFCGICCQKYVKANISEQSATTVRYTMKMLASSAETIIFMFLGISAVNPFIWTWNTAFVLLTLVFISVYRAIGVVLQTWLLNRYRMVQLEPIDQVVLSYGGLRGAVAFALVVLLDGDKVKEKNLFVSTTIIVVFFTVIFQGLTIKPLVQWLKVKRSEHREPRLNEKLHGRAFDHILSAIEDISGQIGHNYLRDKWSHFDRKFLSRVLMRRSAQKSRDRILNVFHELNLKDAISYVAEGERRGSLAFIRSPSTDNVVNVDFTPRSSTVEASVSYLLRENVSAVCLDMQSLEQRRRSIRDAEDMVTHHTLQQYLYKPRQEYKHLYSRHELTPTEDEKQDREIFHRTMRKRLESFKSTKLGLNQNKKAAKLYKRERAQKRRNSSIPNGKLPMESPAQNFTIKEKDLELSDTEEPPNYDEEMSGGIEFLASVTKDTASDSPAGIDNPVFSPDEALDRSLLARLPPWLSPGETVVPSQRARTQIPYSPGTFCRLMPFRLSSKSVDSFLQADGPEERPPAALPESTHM
ASSAY_METHOD_TEXT: Cell-based assay of NHE-3 activity (pre-incubation inhibition), human; also: test concentration or dose not given here
PARTICULARS: PS120 fibroblasts stably expressing human NHE3, pre-incubation with test compound
MEASUREMENT_LABEL: % inhibition (human Preincubation assay)

- MOLECULE: "N[C@@H]1CCCN([C@H]2Cc3c(Cl)cc(Cl)cc3[C@@H]2Oc2ccc(S(=O)(=O)NCCOCCOCCNC(=O)NCCCCNC(=O)NCCOCCOCCNS(=O)(=O)c3ccc(O[C@H]4c5cc(Cl)cc(Cl)c5C[C@@H]4N4CCC[C@@H](N)C4)cc3)cc2)C1 [Example 3]"
  STUDY_TARGET: "UniProt P48764"
  % inhibition (human Preincubation assay): "C (>70%)"
- MOLECULE: "O=C(NCCCCNC(=O)NCCOCCOCCNC(=O)Nc1cccc(O[C@H]2c3ccccc3C[C@@H]2N2CCCCC2)c1)NCCOCCOCCNC(=O)Nc1cccc(O[C@H]2c3ccccc3C[C@@H]2N2CCCCC2)c1 [Example 13]"
  STUDY_TARGET: "UniProt P48764"
  % inhibition (human Preincubation assay): "C (>70%)"
- MOLECULE: "O=C(NCCCCNC(=O)NCCOCCOCCNS(=O)(=O)c1ccc(O[C@H]2c3cc(F)ccc3C[C@@H]2N2CCCCC2)cc1)NCCOCCOCCNS(=O)(=O)c1ccc(O[C@H]2c3cc(F)ccc3C[C@@H]2N2CCCCC2)cc1 [Example 23]"
  STUDY_TARGET: "UniProt P48764"
  % inhibition (human Preincubation assay): "C (>70%)"
- MOLECULE: "CN(C)[C@H]1Cc2ccc(F)cc2[C@@H]1Oc1ccc(S(=O)(=O)NCCOCCOCCNC(=O)NCCCCNC(=O)NCCOCCOCCNS(=O)(=O)c2ccc(O[C@H]3c4cc(F)ccc4C[C@@H]3N(C)C)cc2)cc1 [Example 22]"
  STUDY_TARGET: "UniProt P48764"
  % inhibition (human Preincubation assay): "C (>70%)"
- MOLECULE: "O=C(NCCCCNC(=O)NCCOCCOCCNS(=O)(=O)c1ccc(O[C@H]2c3cc(Cl)cc(Cl)c3C[C@@H]2N2CCCC2)cc1)NCCOCCOCCNS(=O)(=O)c1ccc(O[C@H]2c3cc(Cl)cc(Cl)c3C[C@@H]2N2CCCC2)cc1 [Example 17]"
  STUDY_TARGET: "UniProt P48764"
  % inhibition (human Preincubation assay): "C (>70%)"

Looking up CN(C)[C@H]1Cc2c(F)cc(Cl)cc2[C@@H]1Oc1ccc(S(=O)(=O)NCCOCCOCCNC(=O)NCCCCNC(=O)NCCOCCOCCNS(=O)(=O)c2ccc(O[C@H]3c4cc(Cl)cc(F)c4C[C@@H]3N(C)C)cc2)cc1 [Example 25] , I found its % inhibition (human Preincubation assay) recorded as C (>70%)

Looking up CN(C)[C@H]1Cc2ccccc2[C@@H]1Oc1ccc(S(=O)(=O)NCCOCCOCCNC(=O)NCCCCNC(=O)NCCOCCOCCNS(=O)(=O)c2ccc(O[C@H]3c4ccccc4C[C@@H]3N(C)C)cc2)cc1 [Example 20] , I found its % inhibition (human Preincubation assay) recorded as C (>70%)

Looking up CN(C)[C@H]1Cc2c(Cl)cc(Cl)cc2[C@@H]1Oc1ccc(S(=O)(=O)NCCOCCOCCNC(=O)CCC(C)(N)CCC(=O)NCCOCCOCCNS(=O)(=O)c2ccc(O[C@H]3c4cc(Cl)cc(Cl)c4C[C@@H]3N(C)C)cc2)cc1 [Example 11] , I found its % inhibition (human Preincubation assay) recorded as C (>70%)

Looking up O=C(NCCCCNC(=O)NCCOCCOCCNS(=O)(=O)c1ccc(O[C@H]2c3cc(Cl)cc(F)c3C[C@@H]2N2CC[C@@H](O)C2)cc1)NCCOCCOCCNS(=O)(=O)c1ccc(O[C@H]2c3cc(Cl)cc(F)c3C[C@@H]2N2CC[C@@H](O)C2)cc1 [Example 4] , I found its % inhibition (human Preincubation assay) recorded as C (>70%)
